The following molecules are listed with their measured IC50 values.
- ASSAY SYSTEM: Calcium/calmodulin-dependent protein kinase type II subunit delta (Homo sapiens)
- PROTOCOL TEXT: Inhibition of CaMK2delta

Worked set:
So what does the record say about IC50 for `N#Cc1ccc2[nH]cc(C3=C(n4cc(CCN)c5ccccc54)C(=O)NC3=O)c2c1` ? 46 nM

Which IC50 value belongs to `COc1ccc2[nH]cc(C3=C(n4cc(CCN)c5ccccc54)C(=O)NC3=O)c2c1` ? 170 nM

Return reported IC50; argument: `CN(C)CCc1cn(C2=C(c3c[nH]c4ccccc34)C(=O)NC2=O)c2ccccc12` 560 nM

Would you mind telling me what IC50 value was observed for `CNCCc1cn(C2=C(c3c[nH]c4ccccc34)C(=O)NC2=O)c2ccccc12` ? 150 nM

If you can, please state the reported IC50 value of `CNCCc1cn(C2=C(c3c[nH]c4ccc(C(=O)O)cc34)C(=O)NC2=O)c2ccccc12` . 380 nM

Others:
Dear colleague, I am looking for the recorded IC50 of the following molecule: `CNCCc1cn(C2=C(c3c[nH]c4ccc(C(=O)N(C)C)cc34)C(=O)NC2=O)c2ccccc12` 11800 nM

Which IC50 value is on record for `CN(C)Cc1cn(C2=C(c3c[nH]c4ccccc34)C(=O)NC2=O)c2ccccc12` ? 2410 nM

// query IC50 value for entry `Cc1[nH]c2ccccc2c1C1=C(c2cn(CCCN)c3ccccc23)C(=O)NC1=O` 750 nM

Entry under review: `CCc1ccc2[nH]cc(C3=C(n4cc(CCNC)c5ccccc54)C(=O)NC3=O)c2c1` . Reported IC50? 110 nM

* * *

Attribute: IC50
- ASSAY SYSTEM: Calcium/calmodulin-dependent protein kinase type II subunit delta (Homo sapiens)
- PROTOCOL TEXT: Inhibition of CaMK2delta using freshly stock solution of compound
// units = µM; emit number, no label

Field request: IC50 | item: `NCCCn1cc(C2=C(c3ccccc3)C(=O)NC2=O)c2ccccc21` 0.35

Now, please, on to the next compound.
Name the reported IC50 value associated with the compound `NCCCn1cc(C2=C(c3csc4ccccc34)C(=O)NC2=O)c2ccccc21` 0.36

* * *

- ASSAY SYSTEM: Calcium/calmodulin-dependent protein kinase type II subunit delta (Homo sapiens, UniProt Q13557)
- Sequence (Q13557 whole entry): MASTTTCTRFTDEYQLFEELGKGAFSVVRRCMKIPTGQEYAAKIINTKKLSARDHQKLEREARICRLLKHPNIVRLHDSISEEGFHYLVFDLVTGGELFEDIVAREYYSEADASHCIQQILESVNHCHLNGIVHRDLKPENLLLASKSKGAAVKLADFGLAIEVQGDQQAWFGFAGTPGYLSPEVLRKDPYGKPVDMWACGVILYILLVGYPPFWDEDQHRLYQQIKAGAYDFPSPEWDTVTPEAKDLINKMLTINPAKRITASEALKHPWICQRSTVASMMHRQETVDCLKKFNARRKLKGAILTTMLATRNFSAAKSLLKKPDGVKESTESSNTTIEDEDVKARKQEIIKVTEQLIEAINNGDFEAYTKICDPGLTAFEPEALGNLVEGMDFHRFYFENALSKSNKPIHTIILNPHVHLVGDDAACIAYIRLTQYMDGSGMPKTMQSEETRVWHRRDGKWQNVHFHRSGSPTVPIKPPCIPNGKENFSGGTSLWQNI
- PROTOCOL TEXT: Inhibition of CaMK2delta
PROPERTY MEASURED: pIC50
In simple prose, pIC50 is minus the logarithm base ten of a concentration in moles per litre.

Which pIC50 is listed for `NCCc1cn(C2=C(c3c[nH]c4ccccc34)C(=O)NC2=O)c2ccccc12` ? 6.96

Others:
I have this molecule here, `NCCCn1cc(C2=C(n3ccc4ccccc43)C(=O)NC2=O)c2ccccc21` , and I need its recorded pIC50. 5.34

Returns the measured pIC50 for the input molecule. Input: `NCCCn1cc(C2=C(c3c[nH]c4ccccc34)C(=O)NC2=O)c2ccccc21` 6.42

What value of pIC50 has been recorded for this entry: `NCCc1cn(C2=C(c3c[nH]c4ccc(C(F)(F)F)cc34)C(=O)NC2=O)c2ccccc12` 7.49

Source: ChEMBL document CHEMBL1143899
